Taken from patent US8519149B2.

Assayed Target: Recombinant human mPGES-1 (Homo sapiens, UniProt O14684)
Experiment: In-vitro mPGES-1 enzyme inhibition assay (PGE2 formation from PGH2, HTRF detection)
Run Conditions: class symbols; selected examples
Endpoint Label: IC50

Solved cases (5 shown):
Cc1cc2c(o1)c(C(=O)Nc1ccc(F)cc1)cc1nc(Nc3c(Cl)cncc3Cl)[nH]c12
> 0.1 µM
CC1(C)Cc2c(c(C(=O)NNc3ccc(Br)cc3)cc3nc(Nc4c(Cl)cccc4Cl)[nH]c23)O1
0.05 to 0.1 µM
CC1(C)Cc2c(c(C(=O)Nc3ccc(C4CC4)cc3)cc3nc(Nc4c(F)cccc4Cl)[nH]c23)O1
< 0.05 µM
CC1(C)Cc2c(c(C(=O)Nc3ccccc3F)cc3nc(Nc4c(F)cccc4Cl)[nH]c23)O1
< 0.05 µM
Cc1nc2c(o1)c(C(=O)NCC1CCCCC1)cc1nc(Nc3c(Cl)cccc3Cl)[nH]c12
< 0.05 µM

Let me check: CC1(C)Cc2c(c(C(=O)Nc3ccc(OC(F)F)nc3)cc3nc(Nc4c(F)cccc4Cl)[nH]c23)O1 , system Recombinant human mPGES-1 (Homo sapiens, UniProt O14684), measured IC50 is < 0.05 µM

====

Assayed Target: Recombinant human mPGES-1 (Homo sapiens)
Sequence (O14684 1-152): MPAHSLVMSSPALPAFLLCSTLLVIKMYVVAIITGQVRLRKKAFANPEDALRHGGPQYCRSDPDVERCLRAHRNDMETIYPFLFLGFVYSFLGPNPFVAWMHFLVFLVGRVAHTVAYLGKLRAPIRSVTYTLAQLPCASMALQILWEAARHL
Experiment: In-vitro mPGES-1 enzyme inhibition assay (PGE2 formation from PGH2, HTRF detection)
Run Conditions: class symbols; selected examples
Property: IC50; scope: individual compounds

Solved cases (5 shown):
Cc1cc2c(o1)c(C(=O)NCc1ccccc1C(F)(F)F)cc1nc(Nc3c(Cl)cccc3Cl)[nH]c12 [Example-85]
50 to 100 nM
CC1(C)Cc2c(c(C(=O)NCc3ccc(F)cc3C(F)(F)F)cc3nc(Nc4c(F)cccc4Cl)[nH]c23)O1 [Example-129]
< 50 nM
CC1(C)Cc2c(c(C(=O)Nc3ccc(Br)cc3)cc3nc(Nc4ccccc4Cl)[nH]c23)O1 [Example-78]
< 50 nM
CC1(C)Cc2c(c(C(=O)Nc3ccc(F)cc3C#N)cc3nc(Nc4c(F)cccc4Cl)[nH]c23)O1 [Example-105]
> 100 nM
CC(C)(C)CC(C)(C)NC(=O)c1cc2nc(Nc3c(F)cccc3Cl)[nH]c2c2c1OC(C)(C)C2 [Example-52]
< 50 nM

The compound Cc1ccc(Nc2nc3cc(C(=O)Nc4ccc(C(F)(F)F)cc4)c4c(c3[nH]2)CC(C)(C)O4)c(Cl)c1 [Example-87] showed IC50 equal to < 50 nM

The compound CC1(C)Cc2c(c(C(=O)Nc3cccc(F)c3)cc3nc(Nc4c(F)cccc4Cl)[nH]c23)O1 [Example-56] showed IC50 equal to < 50 nM

====

Assayed Target: Recombinant human mPGES-1 (Homo sapiens, UniProt O14684)
Sequence (O14684 1-152): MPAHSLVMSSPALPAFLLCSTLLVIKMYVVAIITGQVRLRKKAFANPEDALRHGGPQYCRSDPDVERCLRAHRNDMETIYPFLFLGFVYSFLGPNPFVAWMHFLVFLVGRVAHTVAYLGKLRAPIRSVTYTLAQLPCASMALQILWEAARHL
Experiment: In-vitro mPGES-1 enzyme inhibition assay (PGE2 formation from PGH2, HTRF detection)
Type: biochemical
Run Conditions: 10 μM test compound; recombinant human mPGES-1 microsomal fraction; read-out: Percentage inhibition at 10 μM
Endpoint Label: inhibition at 10 µM (%)

CC1(C)Cc2c(c(C(=O)Nc3ccc(F)c(C(F)(F)F)c3)cc3nc(Nc4c(F)cccc4Cl)[nH]c23)O1 [Example-104]
92
CCCCCNC(=O)c1cc2nc(Nc3c(Cl)cncc3Cl)[nH]c2c2c1OC(C)(C)C2 [Example-4]
95
Cc1nc2c(o1)c(C(=O)Nc1ccc(F)c(C(F)(F)F)c1)cc1nc(Nc3c(F)cccc3Cl)[nH]c12 [Example-187]
83
Cc1ccnc(Cl)c1Nc1nc2cc(C(=O)Nc3cccc(C(F)(F)F)c3)c3c(c2[nH]1)CC(C)(C)O3 [Example-137]
100
Cc1cc2c(o1)c(C(=O)NCc1ccc(F)cc1)cc1nc(Nc3c(Cl)cncc3Cl)[nH]c12 [Example-22]
98.8

A: CC1(C)Cc2c(c(C(=O)Nc3cc(C(F)(F)F)ccc3F)cc3nc(NCc4ccccc4Cl)[nH]c23)O1 [Example-145]
B: CC1(C)Cc2c(c(C(=O)Nc3cc(C4CC4)ccc3F)cc3nc(Nc4c(F)cccc4Cl)[nH]c23)O1 [Example-134]
Of A and B , whose reported inhibition at 10 µM is the larger number? Your answer should be the label attached to the chosen record.
B

====

Assayed Target: Recombinant human mPGES-1 (Homo sapiens, UniProt O14684)
Sequence (O14684 1-152): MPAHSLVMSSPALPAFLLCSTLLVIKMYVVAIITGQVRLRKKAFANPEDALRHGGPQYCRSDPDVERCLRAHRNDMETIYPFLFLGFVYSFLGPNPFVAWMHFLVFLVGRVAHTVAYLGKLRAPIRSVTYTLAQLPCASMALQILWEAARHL
Experiment: In-vitro mPGES-1 enzyme inhibition assay (PGE2 formation from PGH2, HTRF detection)
Format: biochemical
Run Conditions: 10 μM test compound; recombinant human mPGES-1 microsomal fraction; read-out: Percentage inhibition at 10 μM
Description: In-Vitro Protocol for Screening of mPGES-1 Inhibitors: mPGES-1 (microsomal prostaglandin E synthase-1) is a microsomal enzyme that converts endoperoxide substrate PGH2 (prostaglandin H2) to product PGE2 (prostaglandin E2) by isomerization in the presence of reduced glutathione (GSH). mPGES-1 inhibitors were screened by assessing their ability to inhibit formation of PGE2 from PGH2 in presence of mPGES-1 using anti-PGE2 antibody based detection method. […]
Endpoint Label: inhibition at 10 µM (%)

Solved cases (3 shown):
CC1(C)Cc2c(c(C(=O)Nc3ccccc3C(F)(F)F)cc3nc(Nc4ccccc4C(C)(C)C)[nH]c23)O1
13.9
CC1(C)Cc2c(c(C(=O)NCc3ccccc3Br)cc3nc(Nc4c(Cl)cccc4Cl)[nH]c23)O1
94.4
Cc1nc2c(o1)c(C(=O)Nc1ccc(C(C)(C)C#N)cc1)cc1nc(Nc3c(Cl)cccc3Cl)[nH]c12
89.5

I: CC1(C)Cc2c(c(C(=O)Nc3ccccc3C(F)(F)F)cc3nc(Nc4c(Cl)cccc4Cl)[nH]c23)O1
II: CC1(C)Cc2c(c(C(=O)Nc3ccc(C(F)(F)F)cc3)cc3nc(Nc4ccccc4C(C)(C)C)[nH]c23)O1
Of I and II , whose reported inhibition at 10 µM is the larger number? Your answer should be the label attached to the chosen record.
I
(I: 95%, II: 22.8%)

====

Assayed Target: Recombinant human mPGES-1 (Homo sapiens, UniProt O14684)
Experiment: In-vitro mPGES-1 enzyme inhibition assay (PGE2 formation from PGH2, HTRF detection)
Assay type: biochemical
Run Conditions: 10 μM test compound; recombinant human mPGES-1 microsomal fraction; read-out: Percentage inhibition at 10 μM
Endpoint Label: inhibition at 10 µM (%)

Cc1cc2c(o1)c(C(=O)NCC1CC1)cc1nc(Nc3c(Cl)cccc3Cl)[nH]c12 [Example-57]
88.2
Cc1cc2c(o1)c(C(=O)NC1CCCCC1)cc1nc(Nc3c(Cl)cccc3Cl)[nH]c12 [Example-13]
97.5
CC1(C)Cc2c(c(C(=O)Nc3cc(F)c(F)cc3F)cc3nc(Nc4c(Cl)cccc4Cl)[nH]c23)O1 [Example-141]
98.6
Cc1cc2c(o1)c(C(=O)Nc1cccc(C(F)(F)F)c1)cc1nc(Nc3c(Cl)cccc3Cl)[nH]c12 [Example-68]
98.5

====

Assayed Target: Recombinant human mPGES-1 (Homo sapiens, UniProt O14684)
Experiment: In-vitro mPGES-1 enzyme inhibition assay (PGE2 formation from PGH2, HTRF detection)
Format: biochemical
Run Conditions: 10 μM test compound; recombinant human mPGES-1 microsomal fraction; read-out: Percentage inhibition at 10 μM
Endpoint Label: inhibition at 10 µM (%)

Cc1cccc(Cl)c1Nc1nc2cc(C(=O)NC3(c4cccc(C(F)(F)F)c4)CC3)c3c(c2[nH]1)CC(C)(C)O3
98
C[C@@H](NC(=O)c1cc2nc(Nc3c(Cl)cncc3Cl)[nH]c2c2c1OC(C)(C)C2)C(C)(C)C
95.5
CC1(C)Cc2c(c(C(=O)Nc3ccc(Br)cc3)cc3nc(Nc4ccccc4Cl)[nH]c23)O1
96.4
CC1(C)Cc2c(c(C(=O)NCc3ccccc3C(F)(F)F)cc3nc(Nc4c(Cl)cccc4Cl)[nH]c23)O1
97.6
CC1(C)Cc2c(c(C(=O)NCc3ccccc3C(F)(F)F)cc3nc(Nc4ccccc4Cl)[nH]c23)O1
99.4
CCCCCCNC(=O)c1cc2nc(Nc3c(Cl)cncc3Cl)[nH]c2c2c1OC(C)(C)C2
99.5
Cc1cc2c(o1)c(C(=O)NC(C)(C)CC(C)(C)C)cc1nc(Nc3c(Cl)cncc3Cl)[nH]c12
98.7
CC(NC(=O)c1cc2nc(Nc3c(Cl)cncc3Cl)[nH]c2c2c1OC(C)(C)C2)C1CCCCC1 (stereo not drawn)
97.8
Cc1ccc(Cl)c(Nc2nc3cc(C(=O)Nc4cccc(C(F)(F)F)c4)c4c(c3[nH]2)CC(C)(C)O4)c1
98.9
CC1(C)Cc2c(c(C(=O)Nc3ccc(C(F)(F)F)c[n+]3[O-])cc3nc(Nc4c(F)cccc4Cl)[nH]c23)O1
97.4
CC1(C)Cc2c(c(C(=O)NCCN3CCOCC3)cc3nc(Nc4c(Cl)cccc4Cl)[nH]c23)O1
88.2
CC1(C)Cc2c(c(C(=O)Nc3nc4ccc(F)cc4s3)cc3nc(Nc4c(Cl)cccc4Cl)[nH]c23)O1
91.8
CC1(C)Cc2c(c(C(=O)Nc3ccc(C#N)cc3)cc3nc(Nc4c(Cl)cccc4Cl)[nH]c23)O1
98.1
Cc1cc2c(o1)c(C(=O)NCc1ccccc1C(F)(F)F)cc1nc(Nc3c(Cl)cccc3Cl)[nH]c12
95.4
CC1(C)Cc2c(c(C(=O)NC3CCCCC3)cc3nc(Nc4c(Cl)cccc4Cl)[nH]c23)O1
96.2
